- target_under_test: T1, FZD8 cysteine-rich domain (CRD), MYC-tagged and GPI-anchored on CHO cells (human, UniProt Q498S8 31-155 (rat entry), GPI anchor)
- T1 construct: also called FZD8 CRD; CHO-myc-FZDGPI; not shown: MYC tag and GPI anchor signal
- T1 sequence: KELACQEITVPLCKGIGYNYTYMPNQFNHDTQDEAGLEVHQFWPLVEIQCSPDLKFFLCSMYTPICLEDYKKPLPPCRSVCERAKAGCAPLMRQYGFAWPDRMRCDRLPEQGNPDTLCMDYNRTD
- method_description: flow cytometry, CHO-CRD cells;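 note: flow cytometry of Fab binding to CHO cells overexpressing a Frizzled CRD, with binding defined as median fluorescence over twice that of CHO cells lacking any Frizzled CRD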
experimental_endpoint: median fluorescence
API doc: respond with a numeric literal and nothing else, no unit.

>>> reported("Fab-2929 (Fab, V domains shown, Fab; also called Fv-2929) VH: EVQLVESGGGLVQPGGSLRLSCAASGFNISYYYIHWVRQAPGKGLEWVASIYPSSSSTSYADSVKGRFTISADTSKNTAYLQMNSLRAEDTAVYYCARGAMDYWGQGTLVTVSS VL: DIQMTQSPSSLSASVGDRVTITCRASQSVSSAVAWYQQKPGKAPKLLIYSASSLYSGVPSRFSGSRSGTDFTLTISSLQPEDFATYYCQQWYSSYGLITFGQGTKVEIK")
7.91

Task item: // lookup median fluorescence for Fab-2916 (Fab, V domains shown, Fab) VH: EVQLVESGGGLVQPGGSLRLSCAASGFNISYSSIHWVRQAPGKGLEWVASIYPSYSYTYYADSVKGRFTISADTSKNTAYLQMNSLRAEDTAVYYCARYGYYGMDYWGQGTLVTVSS VL: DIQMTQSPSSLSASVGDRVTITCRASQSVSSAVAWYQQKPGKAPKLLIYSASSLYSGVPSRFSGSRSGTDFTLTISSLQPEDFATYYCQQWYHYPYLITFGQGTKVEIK
Reply: 7.37

Task item: // lookup median fluorescence for Fab-2904 (Fab, V domains shown, Fab; also called Fv-2904) VH: EVQLVESGGGLVQPGGSLRLSCAASGFNIYSYSMHWVRQAPGKGLEWVAYISSSYGYTSYADSVKGRFTISADTSKNTAYLQMNSLRAEDTAVYYCARSWYAWAMDYWGQGTLVTVSS VL: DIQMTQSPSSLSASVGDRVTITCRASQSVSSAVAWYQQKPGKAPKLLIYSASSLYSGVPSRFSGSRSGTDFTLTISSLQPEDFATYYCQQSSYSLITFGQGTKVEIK
Reply: 10.1
